biological target: Epidermal growth factor receptor [T790M,C797S,L858R] (UniProt P00533, C797S/L858R/T790M); assay: Inhibitory Activity for EGFR (L858R/T790M/C797S) Kinase
Sequence (P00533 25-1210 T790M/C797S/L858R limits assumed): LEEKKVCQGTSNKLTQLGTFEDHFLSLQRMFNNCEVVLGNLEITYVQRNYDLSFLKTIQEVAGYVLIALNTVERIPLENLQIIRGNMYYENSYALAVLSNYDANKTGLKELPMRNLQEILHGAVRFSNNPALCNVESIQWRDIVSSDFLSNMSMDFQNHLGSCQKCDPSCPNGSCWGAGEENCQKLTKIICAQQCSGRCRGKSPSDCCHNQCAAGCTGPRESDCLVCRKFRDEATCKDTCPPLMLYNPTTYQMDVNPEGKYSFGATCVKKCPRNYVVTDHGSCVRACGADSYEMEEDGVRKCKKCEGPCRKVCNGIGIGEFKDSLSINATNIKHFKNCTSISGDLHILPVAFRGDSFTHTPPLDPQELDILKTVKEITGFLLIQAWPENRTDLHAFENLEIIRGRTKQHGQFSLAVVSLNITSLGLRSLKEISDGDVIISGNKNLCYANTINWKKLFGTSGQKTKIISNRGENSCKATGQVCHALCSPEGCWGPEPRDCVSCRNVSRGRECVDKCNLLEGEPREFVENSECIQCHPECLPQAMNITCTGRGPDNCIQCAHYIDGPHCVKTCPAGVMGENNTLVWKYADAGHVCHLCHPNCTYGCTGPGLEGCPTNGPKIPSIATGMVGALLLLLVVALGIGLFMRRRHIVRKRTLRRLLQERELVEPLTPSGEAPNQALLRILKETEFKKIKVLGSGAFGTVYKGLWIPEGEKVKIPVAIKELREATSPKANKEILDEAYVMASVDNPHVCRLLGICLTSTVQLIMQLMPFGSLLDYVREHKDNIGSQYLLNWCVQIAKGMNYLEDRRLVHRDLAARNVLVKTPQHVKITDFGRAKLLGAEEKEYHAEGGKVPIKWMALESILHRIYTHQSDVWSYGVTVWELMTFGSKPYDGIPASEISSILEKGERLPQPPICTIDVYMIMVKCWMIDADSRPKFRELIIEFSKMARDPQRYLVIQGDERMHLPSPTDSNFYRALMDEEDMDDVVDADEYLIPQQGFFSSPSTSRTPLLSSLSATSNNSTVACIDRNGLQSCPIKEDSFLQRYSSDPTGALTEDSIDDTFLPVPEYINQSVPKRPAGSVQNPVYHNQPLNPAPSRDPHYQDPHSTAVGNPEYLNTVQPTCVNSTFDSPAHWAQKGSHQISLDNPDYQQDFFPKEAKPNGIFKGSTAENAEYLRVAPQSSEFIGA
Can you tell me pIC50 for the items I'm about to list?
Please report pIC50 as the negative decimal logarithm of the molar concentration, giving only the number.

Reported pIC50 for Cc1cc2cc(n1)-c1cnn(C)c1OCCC[C@@H](C1CC1)CN1/C(=N/C2=O)Nc2ccc(N[C@H](C)CCN3CCCCC3)cc21 : what is it?
9.40

What do you have for [2H]C([2H])([2H])N(C[C@@H](C)Nc1ccc2c(c1)N/C1=N/C(=O)c3cc(C)nc(c3)-c3cnn(C)c3OCCC[C@@H](C3CC3)CN12)C([2H])([2H])[2H] ?
9.12

What do you have for Cc1cc2cc(n1)-c1cnn(C)c1OCCC[C@@H](C1CC1)CN1/C(=N/C2=O)Nc2ccc(N[C@H](C)CN3CCCCC3)cc21 ?
9.62

What do you have for CNCCCCNc1ccc2c(c1)N/C1=N/C(=O)c3cc(C)nc(c3)-c3cnn(C)c3OCCC[C@@H](C3CC3)CN12 ?
10.46

What do you have for Cc1cc2cc(n1)-c1cnn(C)c1OCCC[C@@H](C1CC1)CN1/C(=N/C2=O)Nc2cc(NC(C)CN(C)C)ccc21 (stereo partly specified) ?
10.80

What do you have for Cc1cc2cc(n1)-c1cnn(C)c1OCCC[C@@H](C1CC1)CN1/C(=N/C2=O)Nc2ccc(NCCN3CCCCC3)cc21 ?
10.64

What do you have for Cc1cc2cc(n1)-c1cnn(C)c1OCCC[C@@H](C1CC1)CN1/C(=N/C2=O)Nc2cc(N[C@@H](C)CN3CCCCC3)ccc21 ?
9.46

What do you have for Cc1cc2cc(n1)-c1cnn(C)c1OCCC[C@@H](C1CC1)CN1/C(=N/C2=O)Nc2cc(N[C@@H]3CC[C@@H](N(C)C)C3)ccc21 ?
9.41

What do you have for Cc1cc2cc(n1)-c1cnn(C)c1OCCC[C@@H](C1CC1)CN1/C(=N/C2=O)Nc2cc(NC3C(C)(C)OC3(C)C)ccc21 ?
10.38

What do you have for Cc1cc2cc(n1)-c1cnn(C)c1OCCC[C@@H](C1CC1)CN1/C(=N/C2=O)Nc2ccc(N[C@@H]3CC[C@H](N(C)C)C3)cc21 ?
9.32

What do you have for Cc1cc2cc(n1)-c1cnn(C)c1OCCC[C@@H](C1CC1)CN1/C(=N/C2=O)Nc2ccc(N[C@H]3C[C@@H](N(C)C)C3)cc21 ?
9.46
